- measured.target: T1, human monocyte chemo-attractant protein-1 (MCP-1) (human, UniProt P13500 24-99)
- T1 construct: 76-residue recombinant protein from E. coli, bought (PeproTech); also called hMCP-1(MCAF); human MCP-1
- T1 sequence (P13500 24-99): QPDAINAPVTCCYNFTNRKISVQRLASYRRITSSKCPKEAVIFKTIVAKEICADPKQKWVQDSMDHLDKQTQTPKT
- assay.text: ELISA, hybridoma supernatant on coated MCP-1; ELISA, hybridoma supernatant on plate-coated non-reduced MCP-1 (2 ug/mL)
parameter: ELISA OD-MCP-1 (OD450)
Express the result in OD450 but write the number alone.

| binder | parameter | result |
| --- | --- | --- |
| anti-MCP-1 mAb 3.11.1 (antibody, human IgG4, kappa, V domains shown) VH: QVQLQESGPGLVKPSQTLSLTCTVSGGSISSGGNYWNWIRQHPGKGLEWIGYIYYSGNTYYNPSLKSRITISIDTSKNQFSLTLSSVTAADTAVYYCARDGGDDAFDIWGQGTMVTVSS VL: DIQMTQSPSSLSASVGDRVTITCQASQDISNYLNWYQQKPGKAPKLLIYDASNLETGVPSRFSGSGSGTDFTFTINSLQPEDIATYYCQEYNNLPYSFGQGTKLEIKR | ELISA OD-MCP-1 | 4 |
| anti-MCP-1 mAb 3.5.1 (antibody, V domains shown) VH: QVQLVQSGAEVKKPGASVKVSCKVSGYTLSELSMHWVRQAPGKGLEWMGGFDPEDDETIYAQKFQGRVTMTEDTSTDTAFMELSSLRSEDTAVYYCATHDFWSGYFHYWGQGTLVTVSS VL: DIVMTQSPDSLAVSLGERATINCKSSQSVLYSSDNKSYLVWYQQKPGQPPKVLIYWASIRESGVPDRFSGSGSGTDFTLTISSLQAEDVAVYYCQQYYTSPWTFGQGTKVEIKR | ELISA OD-MCP-1 | 3.77 |
| anti-MCP-1 mAb 5.3.1 (antibody, V domains shown) VH: QVQLVQSGAEVKKPGASVKVSCKVSGYTLSELSMHWVRQAPGKGLEWMGGFDPEDGETIYAQKFQGRVTMTEDTSTDTAYMELSSLRSEDTAVFYCATKREYSGYFDYWGQGTLVTVSS VL: DIVMTQSPDSLAVSLGERATINCKSSQSVLYSSNSKNYLAWFQQKPGQPPKLLIYWASTRESGVPDRFSGSGSGTDFTLTISRLQAEDVAVYSCQQYFITPWTFGQGTKVELKR | ELISA OD-MCP-1 | 4 |

Prompt: For the binder anti-MCP-1 mAb 2.4.1 (antibody, V domains shown) VH: QVQLVQSGAEVKKPGASVKVSCKASGYTFTGYYLHWVRQAPGQGLEWMGWINPYNDGTNYAQKFQGRVTMTRDTSISTAYMELSRLRSDDTAVYYCARDIAAAGAVYFDYWGQGTLVTVSS VL: DIQMTQSPSSLSASVGDRVTITCQASQDITTYLNWYQQKPGKAPKLLIYDASNLETGVPSRFSGSGSGTDFTFTISSLQPEDIATYYCQQYDNLPITFGQGTRLEIKR , give its reported ELISA OD-MCP-1.
Response: 3.89
